assay target: Mcl-1 protein (UniProtKB primary accession number: Q07820) (Homo sapiens, UniProt Q07820)
Sequence (Q07820 whole entry): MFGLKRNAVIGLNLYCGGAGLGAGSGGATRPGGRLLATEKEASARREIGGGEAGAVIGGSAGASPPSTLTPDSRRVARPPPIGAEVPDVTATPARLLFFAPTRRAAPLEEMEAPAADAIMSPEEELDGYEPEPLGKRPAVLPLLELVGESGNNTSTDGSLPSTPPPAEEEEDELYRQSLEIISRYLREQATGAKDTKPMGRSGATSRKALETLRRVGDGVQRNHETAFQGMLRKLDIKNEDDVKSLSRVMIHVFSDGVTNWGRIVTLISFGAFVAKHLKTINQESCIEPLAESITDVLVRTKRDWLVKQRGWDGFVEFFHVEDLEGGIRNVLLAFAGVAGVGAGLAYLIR
measurement protocol: Inhibition of Mcl-1 by fluorescence polarisation, Method 1
Type: binding
settings: fluorescence polarisation; Method 1, or Method 2; read-out: IC50 (M) Mcl-1 FP
measurement type: IC50 (M)

• CCCCn1nccc1COc1ccccc1CC(Oc1ncnc2sc(-c3ccc(OC)nc3)c(-c3ccc(OCCN4CCN(C)CC4)c(Cl)c3C)c12)C(=O)O (stereo not drawn) = 4.2e-09
• CCN1CCN(CCOc2ccc(-c3c(-c4ccc(F)cc4)sc4ncnc(OC(Cc5ccccc5OCc5ccnc(-c6ccccc6F)n5)C(=O)O)c34)c(C)c2Cl)CC1 (stereo not drawn) = 9.48e-10
• COc1ccccc1-c1nccc(COc2ccccc2CC(Oc2ncnc3sc(-c4ccc(OCc5ccccn5)cc4)c(-c4ccc(OCCN5CCN(C)CC5)c(Cl)c4C)c23)C(=O)O)n1 (stereo not drawn) = 9.48e-10
• COc1ccccc1CC(Oc1ncnc2sc(-c3cccc(Oc4ccc(F)cc4)c3)c(-c3ccc(OCCN4CCN(C)CC4)c(Cl)c3C)c12)C(=O)O (stereo not drawn) = 1.2e-08
• COc1ccccc1CC(Oc1ncnc2sc(-c3cc4sccc4s3)c(-c3ccc(OCCN4CCN(C)CC4)c(Cl)c3C)c12)C(=O)O (stereo not drawn) = 1.2e-07
• CC#Cc1sc2ncnc(OC(Cc3ccccc3OC)C(=O)O)c2c1-c1ccc(O)c(Cl)c1C (stereo not drawn) = 2.8e-08
• COc1nccc(COc2ccccc2CC(Oc2ncnc3sc(-c4ccc(F)c(OCCN5CCOCC5)c4)c(-c4ccc(OCCN5CCN(C)CC5)c(Cl)c4C)c23)C(=O)O)n1 (stereo not drawn) = 2.7e-09
• CCc1sc2ncnc(OC(Cc3ccccc3OCc3ccnn3CC)C(=O)O)c2c1-c1ccc(OCCN2CCN(C)CC2)c(Cl)c1C (stereo not drawn) = 8e-09
• CC(C)=Cc1sc2ncnc(OC(Cc3ccccc3)C(=O)O)c2c1-c1ccc(OCCN2CCN(C)CC2)c(Cl)c1C (stereo not drawn) = 4.4e-08
• Cc1c(-c2c(-c3ccc(OCC(F)(F)F)nc3)sc3ncnc(OC(Cc4ccccc4OCc4ccnn4CC(F)(F)F)C(=O)O)c23)ccc(OCCN2CCN(C)CC2)c1Cl (stereo not drawn) = 1.6e-08
• CCc1sc2ncnc(O[C@@H](Cc3ccccc3OC)C(=O)O)c2c1-c1ccc(O)c(Cl)c1C (single isomer, unassigned) [Example 679] = 8.9e-07
• CCc1sc2ncnc(OC(Cc3ccccc3)C(=O)O)c2c1-c1cccc(Cl)c1C (stereo not drawn) [Example 450] = 2.6e-08
• COc1ccccc1-c1nccc(COc2ccccc2CC(Oc2ncnc3sc(C#CCCc4ccccc4)c(-c4ccc(OCCN5CCN(C)CC5)c(Cl)c4C)c23)C(=O)O)n1 (stereo not drawn) = 9.48e-10
• COc1ccccc1CC(Oc1ncnc2sc(-c3ccccc3)c(-c3ccc(OCCN4CCN(C)CC4)c(Cl)c3C)c12)C(=O)O (stereo not drawn) = 8.5e-10
• CC#Cc1sc2ncnc(O[C@H](Cc3ccccc3OC)C(=O)O)c2c1-c1cc(C)c(OCCN2CCN(C)CC2)c(Cl)c1C = 6.8e-09
• CCCCn1nccc1COc1ccccc1CC(Oc1ncnc2sc(-c3ccc(CC)cc3)c(-c3ccc(OCCN4CCN(C)CC4)c(Cl)c3C)c12)C(=O)O (stereo not drawn) = 1.2e-08
• COc1ccccc1-c1nccc(COc2ccccc2CC(Oc2ncnc3sc(-c4ccc(OCc5ccccc5C)cc4)c(-c4ccc(OCCN5CCN(C)CC5)c(Cl)c4C)c23)C(=O)O)n1 (stereo not drawn) = 1.73e-09
• CCc1sc2ncnc(OC(Cc3ccccc3F)C(=O)O)c2c1-c1ccc(OCCN2CCN(C)CC2)c(Cl)c1C (stereo not drawn) [Example 464] = 3.9e-07
• CCN(C)CCOc1ccc(-c2c(-c3ccc(F)cc3)sc3ncnc(OC(Cc4ccccc4OCc4ccnc(-c5ccccc5F)n4)C(=O)O)c23)c(C)c1Cl (stereo not drawn) = 3.6e-09
• COc1ccccc1CC(Oc1ncnc2sc(-c3cccc([N+](=O)[O-])c3)c(-c3ccc(OCCN4CCN(C)CC4)c(Cl)c3C)c12)C(=O)O (stereo not drawn) = 3.9e-08
• COc1ccccc1CC(Oc1ncnc2sc(-c3cccc(O)c3)c(-c3ccc(OCCN4CCN(C)CC4)c(Cl)c3C)c12)C(=O)O (stereo not drawn) = 1.1e-08
• Cc1c(-c2c(-c3ccc(F)cc3)sc3ncnc(OC(Cc4ccccc4OCc4ccnc(-c5ccccc5OCc5ccccc5)n4)C(=O)O)c23)ccc(OCCN2CCN(C)CC2)c1Cl (stereo not drawn) = 1.46e-09
• CCCCn1nccc1COc1ccccc1CC(Oc1ncnc2sc(C#CCOC)c(-c3ccc(OCCN4CCN(C)CC4)c(Cl)c3C)c12)C(=O)O (stereo not drawn) = 3.5e-09
• Cc1c(-c2c(-c3ccco3)sc3ncnc(OC(Cc4ccccc4OCc4ccnn4C)C(=O)O)c23)ccc(OCCN(C)C)c1Cl (stereo not drawn) = 1.1e-08
